These measurements were taken from PubChem BioAssay AID1918998.

Entries and their measured viability, T/C follow.
# Test system: 521955-158-R2-J5-PDC complex spheroid growth
# assay: Anticancer human tumor 521955-158-R2-J5-PDC patient-derived pancreatic carcinoma cell line growth inhibition [AhR]
# recorded_conditions: second compound 10 µM; first compound 0.00316 µM; stronger effect = lower value

compound	readout_units	viability, T/C
CC[C@@]1(O)C(=O)OCc2c1cc1n(c2=O)Cc2cc3c(CN(C)C)c(O)ccc3nc2-1 + Cc1ccccc1N=Nc1ccc(NC(=O)c2ccnn2C)c(C)c1	%	131
Cn1ncnc1C1c2n[nH]c(=O)c3cc(F)cc(c23)NC1c1ccc(F)cc1 (configuration not stated) + Cc1cncc(-c2nc(NCCc3c[nH]c4ccccc34)c3ncn(C(C)C)c3n2)c1	%	106
Nc1ncn(C2CC(O)C(CO)O2)c(=O)n1 (configuration not stated) + Cc1cncc(-c2nc(NCCc3c[nH]c4ccccc34)c3ncn(C(C)C)c3n2)c1	%	141
CC1COCCN1c1cc(-c2ccnn2C)c2ccnc(-c3ccn[nH]3)c2n1 (configuration not stated) + Cc1ccccc1N=Nc1ccc(NC(=O)c2ccnn2C)c(C)c1	%	134
Cn1ncnc1C1c2n[nH]c(=O)c3cc(F)cc(c23)NC1c1ccc(F)cc1 (configuration not stated) + Cc1ccccc1N=Nc1ccc(NC(=O)c2ccnn2C)c(C)c1	%	158
Nc1ncn(C2CC(O)C(CO)O2)c(=O)n1 (configuration not stated) + CC(CO)NC(=O)c1cc(-c2ccc(Cl)cc2)nn(-c2cnn(C)c2)c1=O	%	83.3
CC1COCCN1c1cc(-c2ccnn2C)c2ccnc(-c3ccn[nH]3)c2n1 (configuration not stated) + Cc1cncc(-c2nc(NCCc3c[nH]c4ccccc34)c3ncn(C(C)C)c3n2)c1	%	127
CC[C@@]1(O)C(=O)OCc2c1cc1n(c2=O)Cc2cc3c(CN(C)C)c(O)ccc3nc2-1 + CC(CO)NC(=O)c1cc(-c2ccc(Cl)cc2)nn(-c2cnn(C)c2)c1=O	%	85.6
Nc1ncn(C2CC(O)C(CO)O2)c(=O)n1 (configuration not stated) + Cc1ccccc1N=Nc1ccc(NC(=O)c2ccnn2C)c(C)c1	%	138
CC1COCCN1c1cc(-c2ccnn2C)c2ccnc(-c3ccn[nH]3)c2n1 (configuration not stated) + CC(CO)NC(=O)c1cc(-c2ccc(Cl)cc2)nn(-c2cnn(C)c2)c1=O	%	93.5
CC[C@@]1(O)C(=O)OCc2c1cc1n(c2=O)Cc2cc3c(CN(C)C)c(O)ccc3nc2-1 + Cc1cncc(-c2nc(NCCc3c[nH]c4ccccc34)c3ncn(C(C)C)c3n2)c1	%	144
Cn1ncnc1C1c2n[nH]c(=O)c3cc(F)cc(c23)NC1c1ccc(F)cc1 (configuration not stated) + CC(CO)NC(=O)c1cc(-c2ccc(Cl)cc2)nn(-c2cnn(C)c2)c1=O	%	99.7

###

# Test system: 521955-158-R2-J5-PDC complex spheroid growth
# assay: Anticancer human tumor 521955-158-R2-J5-PDC cell line growth inhibition [AhR]
# recorded_conditions: compound alone; run of 06/06/2022
endpoint_label: IC50

1. Cc1cncc(-c2nc(NCCc3c[nH]c4ccccc34)c3ncn(C(C)C)c3n2)c1 > 10 µM

###

# System: 521955-158-R2-J5-PDC complex spheroid growth
# assay: Anticancer human tumor 521955-158-R2-J5-PDC cell line growth inhibition [AhR];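 for viability, T/C: spheroids mix tumor cells with HUVEC endothelium and human MSC stroma; luminescence taken as viability surrogate after a week of drug exposure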
# recorded_conditions: second compound 0.1 µM; first compound 0.00316 µM; stronger effect = lower value
# Description: Multicellular complex tumor spheroid response to aryl hydrocarbon receptor antagonists in combination with a variety of drugs and investigational agents in selected tumor cell lines […] Compounds. […] If the clinical Cmax for an agent had not been determined, the highest concentration tested was 10 microM (Table 1). […]

compound	viability, T/C / %
Cn1ncnc1C1c2n[nH]c(=O)c3cc(F)cc(c23)NC1c1ccc(F)cc1 (stereo unspecified) + CC(CO)NC(=O)c1cc(-c2ccc(Cl)cc2)nn(-c2cnn(C)c2)c1=O	116
CC[C@@]1(O)C(=O)OCc2c1cc1n(c2=O)Cc2cc3c(CN(C)C)c(O)ccc3nc2-1 + Cc1cncc(-c2nc(NCCc3c[nH]c4ccccc34)c3ncn(C(C)C)c3n2)c1	101
Cn1ncnc1C1c2n[nH]c(=O)c3cc(F)cc(c23)NC1c1ccc(F)cc1 (stereo unspecified) + Cc1cncc(-c2nc(NCCc3c[nH]c4ccccc34)c3ncn(C(C)C)c3n2)c1	94.6
CC1COCCN1c1cc(-c2ccnn2C)c2ccnc(-c3ccn[nH]3)c2n1 (stereo unspecified) + Cc1ccccc1N=Nc1ccc(NC(=O)c2ccnn2C)c(C)c1	128
Nc1ncn(C2CC(O)C(CO)O2)c(=O)n1 (stereo unspecified) + CC(CO)NC(=O)c1cc(-c2ccc(Cl)cc2)nn(-c2cnn(C)c2)c1=O	113
CC[C@@]1(O)C(=O)OCc2c1cc1n(c2=O)Cc2cc3c(CN(C)C)c(O)ccc3nc2-1 + CC(CO)NC(=O)c1cc(-c2ccc(Cl)cc2)nn(-c2cnn(C)c2)c1=O	110

###

# System: 521955-158-R2-J5-PDC complex spheroid growth
# assay: Anticancer human tumor 521955-158-R2-J5-PDC cell line growth inhibition [AhR];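 for viability, T/C: spheroids mix tumor cells with HUVEC endothelium and human MSC stroma; luminescence taken as viability surrogate after a week of drug exposure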
# recorded_conditions: second compound 10 µM; first compound 0.000316 µM; stronger effect = lower value
endpoint_label: viability, T/C (%)

compound	readout_units	recorded_measurement
CC[C@@]1(O)C(=O)OCc2c1cc1n(c2=O)Cc2cc3c(CN(C)C)c(O)ccc3nc2-1 + CC(CO)NC(=O)c1cc(-c2ccc(Cl)cc2)nn(-c2cnn(C)c2)c1=O	%	76.5
Cn1ncnc1C1c2n[nH]c(=O)c3cc(F)cc(c23)NC1c1ccc(F)cc1 (stereo unspecified) + CC(CO)NC(=O)c1cc(-c2ccc(Cl)cc2)nn(-c2cnn(C)c2)c1=O	%	104
CC[C@@]1(O)C(=O)OCc2c1cc1n(c2=O)Cc2cc3c(CN(C)C)c(O)ccc3nc2-1 + Cc1cncc(-c2nc(NCCc3c[nH]c4ccccc34)c3ncn(C(C)C)c3n2)c1	%	214
Cn1ncnc1C1c2n[nH]c(=O)c3cc(F)cc(c23)NC1c1ccc(F)cc1 (stereo unspecified) + Cc1cncc(-c2nc(NCCc3c[nH]c4ccccc34)c3ncn(C(C)C)c3n2)c1	%	134
Cn1ncnc1C1c2n[nH]c(=O)c3cc(F)cc(c23)NC1c1ccc(F)cc1 (stereo unspecified) + Cc1ccccc1N=Nc1ccc(NC(=O)c2ccnn2C)c(C)c1	%	158
CC[C@@]1(O)C(=O)OCc2c1cc1n(c2=O)Cc2cc3c(CN(C)C)c(O)ccc3nc2-1 + Cc1ccccc1N=Nc1ccc(NC(=O)c2ccnn2C)c(C)c1	%	130

###

# Tested on: 521955-158-R2-J5-PDC complex spheroid growth
# assay: Anticancer human tumor 521955-158-R2-J5-PDC cell line growth inhibition [AhR];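 for viability, T/C: spheroids mix tumor cells with HUVEC endothelium and human MSC stroma; luminescence taken as viability surrogate after a week of drug exposure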
# recorded_conditions: second compound 3.16 µM; first compound 0.3 µM; stronger effect = lower value
Entries and their measured viability, T/C follow.

compound	viability, T/C [%]
CCN(c1cc(-c2ccc(CN3CCOCC3)cc2)cc(C(=O)NCc2c(C)cc(C)[nH]c2=O)c1C)C1CCOCC1 + Cc1ccccc1N=Nc1ccc(NC(=O)c2ccnn2C)c(C)c1	125
CCc1c2c(nc3ccc(O)cc13)-c1cc3c(c(=O)n1C2)COC(=O)[C@]3(O)CC + Cc1ccccc1N=Nc1ccc(NC(=O)c2ccnn2C)c(C)c1	11.7
CCN(c1cc(-c2ccc(CN3CCOCC3)cc2)cc(C(=O)NCc2c(C)cc(C)[nH]c2=O)c1C)C1CCOCC1 + Cc1cncc(-c2nc(NCCc3c[nH]c4ccccc34)c3ncn(C(C)C)c3n2)c1	148
CC(C)CC(NC(=O)C(Cc1ccccc1)NC(=O)c1cnccn1)B(O)O (configuration not stated) + Cc1ccccc1N=Nc1ccc(NC(=O)c2ccnn2C)c(C)c1	0.34
CCc1c2c(nc3ccc(O)cc13)-c1cc3c(c(=O)n1C2)COC(=O)[C@]3(O)CC + CC(CO)NC(=O)c1cc(-c2ccc(Cl)cc2)nn(-c2cnn(C)c2)c1=O	9.82
CCN(c1cc(-c2ccc(CN3CCOCC3)cc2)cc(C(=O)NCc2c(C)cc(C)[nH]c2=O)c1C)C1CCOCC1 + CC(CO)NC(=O)c1cc(-c2ccc(Cl)cc2)nn(-c2cnn(C)c2)c1=O	86.7
CCc1c2c(nc3ccc(O)cc13)-c1cc3c(c(=O)n1C2)COC(=O)[C@]3(O)CC + Cc1cncc(-c2nc(NCCc3c[nH]c4ccccc34)c3ncn(C(C)C)c3n2)c1	10.5
Nc1ncn(C2CC(O)C(CO)S2)c(=O)n1 (configuration not stated) + CC(CO)NC(=O)c1cc(-c2ccc(Cl)cc2)nn(-c2cnn(C)c2)c1=O	73.1
O=C(C=Cn1cnc(-c2cc(C(F)(F)F)cc(C(F)(F)F)c2)n1)NNc1cnccn1 + Cc1ccccc1N=Nc1ccc(NC(=O)c2ccnn2C)c(C)c1	40.8
Nc1ncn(C2CC(O)C(CO)S2)c(=O)n1 (configuration not stated) + Cc1cncc(-c2nc(NCCc3c[nH]c4ccccc34)c3ncn(C(C)C)c3n2)c1	128
CC(C)CC(NC(=O)C(Cc1ccccc1)NC(=O)c1cnccn1)B(O)O (configuration not stated) + Cc1cncc(-c2nc(NCCc3c[nH]c4ccccc34)c3ncn(C(C)C)c3n2)c1	2.29
CC(C)CC(NC(=O)C(Cc1ccccc1)NC(=O)c1cnccn1)B(O)O (configuration not stated) + CC(CO)NC(=O)c1cc(-c2ccc(Cl)cc2)nn(-c2cnn(C)c2)c1=O	1.99
